Target: T1, human KLK5, active form (human, UniProt Q9Y337 67-293)
T1 construct: mature; also called hKLK5; huKLK5
T1 sequence (Q9Y337 67-293 limits assumed): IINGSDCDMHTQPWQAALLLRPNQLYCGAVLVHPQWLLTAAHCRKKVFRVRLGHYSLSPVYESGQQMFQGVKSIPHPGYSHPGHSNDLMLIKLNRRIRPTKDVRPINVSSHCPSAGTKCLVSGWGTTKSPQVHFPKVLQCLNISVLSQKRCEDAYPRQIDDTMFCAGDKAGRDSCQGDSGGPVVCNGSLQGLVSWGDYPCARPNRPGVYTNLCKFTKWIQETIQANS
Assay: SPR (Biacore), antibody captured on Protein A chip, KLK as analyte, single-cycle kinetics, 25 C
Measure name: pKd
Answers are plain numbers, as −log10 of the molar value.

{"columns": ["Binder", "Recorded measurement"],
 "data": [
  ["KLK5/KLK7-Dual-Ab2 (antibody, V domains shown, Captured on a Protein A chip as an antibody; also called KLK5/7-Dual-Ab2) VH: QLQLQESGPGLVKPSETLSLTCTVSGGSISSDDYYWVWIRQPPGKGLEWIGSIDYFASTYYNPSLKSRVTISVDTSKNQFSLKLSSVTAADTAVYYCARGRPLGYGARHDYYGMDVWGQGTTVTVSS VL: DIQMTQSPSSLSASVGDRVTITCRASQSISSYLNWYQQKPGKAPKLLIYSASSLQSGVPSRFSGSGSGTDFTLTISSLQPEDFATYYCQQSPYFPPLTFGGGTKVEIK", 11.00],
  ["KLK5/KLK7-Dual-Ab4 (antibody, V domains shown, Captured on a Protein A chip or coupled to a CM5 chip as an antibody; also called KLK5/7-Dual-Ab4) VH: QLQLQESGPGLVKPSETLSLTCTVSGGSISSLDYYWVWIRQPPGKGLEWIGSIDYSGDTYYNPSLKSRVTISVDTSKNQFSLKLSSVTAADTAVYYCARGRPLGYGARHYYYAMDVWGQGTTVTVSS VL: DIQMTQSPSSLSASVGDRVTITCRASQSISSYLNWYQQKPGKAPKLLIYSASSLQSGVPSRFSGSGSGTDFTLTISSLQPEDFATYYCQQSPYFPPLTFGGGTKVEIK", 10.61]
]}

Now look at this entry.
INPUT: Kindly indicate its recorded pKd. Item: KLK5/KLK7-Dual-Ab1 (antibody, V domains shown, Captured on a Protein A chip as an antibody; also called KLK5/7-Dual-Ab1) VH: QLQLQESGPGLVKPSETLSLTCTVSGGSISSSDYYWGWIRQPPGKGLEWIGSIYYSGSTYYNPSLKSRVTISVDTSKNQFSLKLSSVTAADTAVYYCARGRPLGYGARHYYYGMDVWGQGTTVTVSS VL: DIQMTQSPSSLSASVGDRVTITCRASQSISSYLNWYQQKPGKAPKLLIYSASSLQSGVPSRFSGSGSGTDFTLTISSLQPEDFATYYCQQSPPFPPLTFGGGTKVEIK
OUTPUT: 6.00
